These data points were gathered from ChEMBL document CHEMBL4000143.

Molecular target: D(2) dopamine receptor (Homo sapiens)
Assay: Agonist activity at human dopamine D2L receptor expressed in F1pIn CHO cells assessed as […] forskolin-mediated cAMP accumulation incubated for 30 mins by AlphaScreen assay
Assay type: functional, cell-based
Outcome measure: pEC50
pEC50 (log units): -log10 of the concentration in mol/L.

Requested field: pEC50. Item: "O=C1COc2ccccc2N1CCCN1CCN(c2cccc3[nH]c(=O)oc23)CC1"
10.02

* * *

Target: D(2) dopamine receptor (Homo sapiens, UniProt P14416)
Sequence (P14416 whole entry): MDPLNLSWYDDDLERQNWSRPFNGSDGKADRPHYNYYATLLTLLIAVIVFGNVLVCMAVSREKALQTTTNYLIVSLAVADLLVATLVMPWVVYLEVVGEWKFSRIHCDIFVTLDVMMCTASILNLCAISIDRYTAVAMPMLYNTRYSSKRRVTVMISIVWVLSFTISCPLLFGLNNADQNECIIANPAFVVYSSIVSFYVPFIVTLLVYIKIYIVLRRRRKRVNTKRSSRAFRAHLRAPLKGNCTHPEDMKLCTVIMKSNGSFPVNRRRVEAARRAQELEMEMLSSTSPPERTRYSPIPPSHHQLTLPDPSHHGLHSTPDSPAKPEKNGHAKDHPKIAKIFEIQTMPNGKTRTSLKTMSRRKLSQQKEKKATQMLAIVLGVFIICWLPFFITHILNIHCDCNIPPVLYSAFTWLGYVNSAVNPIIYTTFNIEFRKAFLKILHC
Assay: Antagonist activity at human dopamine D2L receptor expressed in F1pIn CHO cells assessed as inhibition of ERK1/2 phosphorylation incubated for 5 mins by AlphaScreen assay
Assay type: cell-based
Outcome measure: pKb
Just the number, please, no unit attached.

Requested field: pKb. Item: "O=C1COc2ccccc2N1CCCN1CCN(c2nsc3ccccc23)CC1"
8.16

Similarly, "O=C1COc2ccccc2N1CCCN1CCN(c2cccc(Cl)c2Cl)CC1" ?
7

Similarly, "O=C1COc2ccccc2N1CCCN1CCC(c2noc3cc(F)ccc23)CC1" ?
8.91

Similarly, "COc1ccccc1N1CCN(CCCN2C(=O)COc3ccccc32)CC1" ?
8.11

Similarly, "O=C(Cc1ccccc1)NC1CCN(CCCN2C(=O)COc3ccccc32)CC1" ?
5.68

* * *

Biological target: D(2) dopamine receptor (Homo sapiens)
Experiment: Agonist activity at human dopamine D2L receptor expressed in F1pIn CHO cells assessed as induction of ERK1/2 phosphorylation incubated for 5 mins by AlphaScreen assay
Format: cell-based
Outcome measure: pEC50
pEC50 (log units): -log10 of the concentration in mol/L.

Requested field: pEC50. Item: "O=C1COc2ccccc2N1CCCN1CCN(c2cccc3[nH]c(=O)oc23)CC1"
9.19

* * *

Target: D(2) dopamine receptor (Homo sapiens, UniProt P14416)
Provide the reported pKi of each item.
pKi (log units): -log10 of the concentration in mol/L.

Short answer please: pKi, D(2) dopamine receptor (Homo sapiens, UniProt P14416), entry "O=C(Cc1ccccc1)NC1CCN(CCCN2C(=O)COc3ccccc32)CC1"
6.08

Similarly, "O=C1COc2ccccc2N1CCCN1CCN(c2cccc3[nH]c(=O)oc23)CC1" ?
8.77

* * *

Biological target: Muscarinic acetylcholine receptor M1 (Homo sapiens)
Assay: Agonist activity at human mAChR1 receptor expressed in F1pIn CHO cells assessed as induction of intracellular calcium mobilization relative to acetylcholine
Active and inactive are the calls of the source. The rule behind the calls is not given here.
Outcome measure: Emax

Examples from the recorded data:
INSERT INTO results (compound_smiles, system_tested, outcome_measure, result) VALUES
  ('O=C1COc2ccccc2N1CCCN1CCN(c2cccc3[nH]c(=O)oc23)CC1', 'Muscarinic acetylcholine receptor M1 (Homo sapiens)', 'Emax', 'inactive'),
  ('O=C1COc2ccccc2N1CCCN1CCN(c2cccc(Cl)c2Cl)CC1', 'Muscarinic acetylcholine receptor M1 (Homo sapiens)', 'Emax', 'inactive'),
  ('COc1ccccc1N1CCN(CCCN2C(=O)COc3ccccc32)CC1', 'Muscarinic acetylcholine receptor M1 (Homo sapiens)', 'Emax', 'inactive'),
  ('O=C1COc2ccccc2N1CCCN1CCC(c2noc3cc(F)ccc23)CC1', 'Muscarinic acetylcholine receptor M1 (Homo sapiens)', 'Emax', 'inactive');

Requested field: Emax. Item: "O=C(Cc1ccccc1)NC1CCN(CCCN2C(=O)COc3ccccc32)CC1"
101%
